Source: PubChem BioAssay (NCI)

test system: RPMI-8226 leukemia; test: NCI-60 one-dose screen, 48 h (100 = growth as untreated, 0 = no growth, -100 = all killed); conditions: 10 µM unless noted
The panel holds about 83,000 compounds, 20% with a hit somewhere; the sample as a whole holds those more often.
If the reported growth equals or exceeds 20%, assign Criterion met. If not, assign Criterion not met.

Enquiry: Say whether C(=C(\C1=NCCN1)n1cnc2ccccc21)/c1ccc2ccccc2c1 shows growth of 20% or more.
Return: Criterion met

Enquiry: Threshold query (growth >= 20%) on N#Cc1c(-c2cccs2)cc(-c2cnccn2)nc1SCC(=O)NNC(=S)Nc1ccc(F)cc1
Return: Criterion met

Enquiry: Does growth meet or surpass 20% for COc1ccc(NC(=O)[C@H](C)NC(=O)OC(C)(C)C)cc1C(=O)Nc1cccc(-c2cc(=O)c3c(OC)c(OC)c(OC)cc3o2)c1 ?
Return: Criterion not met

Enquiry: Hi team, for CS(=O)(=O)c1nccc(-c2c(-c3ccc(F)c(OCCc4ccccc4)c3)nc3sccn23)n1 , is the recorded growth at or above 20%?
Return: Criterion met

Enquiry: Does the compound O=C(NNc1nc2cc(F)c(F)cc2n2cccc12)c1ccncn1 have recorded growth that is 20% or more?
Return: Criterion not met

Enquiry: Hello, I need to know if COc1ccccc1/C=C/C=N/NC1=NC2C(S1)N(C)C(=O)N2c1ccccc1 (configuration not stated) has measured growth not below 20%. Thanks!
Return: Criterion not met

Enquiry: Check this compound for growth at or above 20%: COCCC[C@H]1O[C@@](O)([C@H](C)[C@@H]2CC(OC)C(O)/C=C(C)/C=C(C)/C=C(\C)C(OC3O[C@@H](C)[C@H](O)C(O)[C@@H]3O)C(C)/C=C(C)/C=C(OC)/C=C(\C)C(=O)O2)C(OC)C(O)[C@]1(C)O[C@H]1C[C@@H](O)[C@H](O[C@H]2C[C@](C)(O)[C@H](O)C(C)O2)C(C)O1 (some centres not stated)
Return: Criterion met

----------
tested on: MDA-MB-231 breast; assay: NCI-60 one-dose screen, 48 h (100 = growth as untreated, 0 = no growth, -100 = all killed); settings: 10 µM unless noted
Compounds without any hit were thinned out: in the full panel of roughly 83,000, 20% have a hit.
Can you tell me growth for the items I'm about to list?
Kindly answer with a numeric value in %, unit omitted.

Enquiry: # get_value(readout='growth', item= Clc1ccc(-c2nc3ccc(/C(=N\N=C\c4ccccc4)c4ccccc4)cc3[nH]2)cc1 )
Return: 95.8

Enquiry: Entry Oc1ccc(CSc2nnc(-c3ccccc3)n2-c2ccccc2)c2cccnc12 : reported growth = ?
Return: 31

Enquiry: Record request: growth value, item CNC(=O)c1cc(Oc2ccc3nc(NC(=O)c4ccc(CN5CCN(C)CC5)c(C(F)(F)F)c4)sc3c2)ccn1
Return: 77.5

Enquiry: Please look up its growth: Cc1ccc(NC(=O)c2cccc(CN3CCN(C)CC3)c2)cc1Oc1ccc(-c2[nH]nc3ncnc(N)c23)cc1
Return: 60.7

Enquiry: What value of growth has been recorded for this entry: CCCCCc1ccc(S(=O)(=O)N(C(C)=O)c2cccc(-c3csc(N(CCN4CCN(C)CC4)C(C)=O)n3)c2)cc1
Return: 4.58

Enquiry: Any idea what its growth is? The molecule is COC[C@@]1(C)CC[C@]2(C)CC[C@]3(C)C(=CC[C@@H]4[C@@]5(C)CCCNC(C)(C)[C@@H]5CC[C@]43C)C2C1 (some centres undefined)
Return: 77.7

Enquiry: Dear colleague, I am looking for the recorded growth of the following molecule: C=C(C)[C@@H]1CC[C@]2(C(=O)NCCCN(CCC#N)CCC#N)CC[C@]3(C)[C@H](CC[C@@H]4[C@@]5(C)CCC(=O)C(C)(C)[C@@H]5CC[C@]43C)[C@@H]12
Return: 99.4

Enquiry: Consider the molecule O=C(N/N=C\c1ccc(Cl)cc1)c1ccc2nc(-c3ccc(Br)cc3)[nH]c2c1 and give its measured growth.
Return: 18.2

Enquiry: Need growth, item C#C[C@]1(O)CC[C@H]2[C@@H]3CC=C4c5sc(Nc6cc(Cl)ccn6)nc5CC[C@]4(C)[C@H]3CC[C@@]21C
Return: 32.6

Enquiry: Field request: growth | item: Oc1ccccc1/C=N/Nc1nc(N/N=C/c2ccccc2O)nc(N2CCOCC2)n1
Return: 36.3

Enquiry: Query (molecule): O=S(=O)(NCCCNc1nccc(-n2cnc3ccccc32)n1)c1ccc(F)cc1 ; field requested: growth
Return: 74.4

Enquiry: Fill in: growth of O=C(Nc1cccc(-c2nc(-c3ccc(NC(=O)c4cccnc4)cc3Cl)no2)c1)Nc1ccc(NC(=O)C2CC2)c(C(F)(F)F)c1 is ___
Return: -59.5

Enquiry: Requested read-out: growth. Entry: CC1=CC(=O)CC(C)(C)[C@@]1(O)/C=C/C(C)=C\C(=O)O
Return: -18

Enquiry: If you can, please state the reported growth value of O=C(CSc1nnc(-c2ccc(Cl)cc2)n1-c1ccccc1)Nc1ccc(F)cc1 .
Return: 49.4

Enquiry: Returns the measured growth for the input molecule. Input: COc1ccc(-c2nc3cc(Cl)c(Cl)cc3n2CC(=O)N=Nc2c(O)[nH]c3ccccc23)cc1
Return: 54.2

Enquiry: // query growth value for entry O=C(/C=C1\C=CN(CCCCO)c2ccccc21)n1ccc2ccccc21
Return: 98.5

Enquiry: Name the recorded growth for COc1ccc(-c2nc3cc(Cl)c(Cl)cc3n2CC(=O)N=Nc2c(O)[nH]c3ccc(Cl)cc23)cc1 .
Return: 29.8

Enquiry: Look up growth: CCCCOc1ccc(S(=O)(=O)N2CCN(c3nccc(N4CCOCC4)n3)CC2)cc1
Return: 21.5

Enquiry: I'd like to know its growth. The molecule in question is COc1cc(OC)c(S(N)(=O)=O)cc1C(=O)/C=C/c1ccccc1
Return: 10.3

Enquiry: I have this molecule here, C=C1C(=O)O[C@@H]2C[C@@H](C)CCC(=O)[C@](C)(OC(C)=O)C[C@H](OC(=O)/C(C)=C\C)[C@@H]12 , and I need its recorded growth.
Return: 50.4

Enquiry: Reported growth for CCC(=O)Nc1cc(Nc2cc(NC3CC3)n3ncc(C#N)c3n2)ccc1C : what is it?
Return: 19.5

Enquiry: // growth lookup, key: CS(=O)(=O)c1nccc(-c2c(-c3ccc(F)c(OCc4ccccc4)c3)nc3sccn23)n1
Return: 93.1

Enquiry: Item CCn1c2ccc(/C=N/OCCCN(C)C)cc2c2cc(/C=N/OCCCN(C)C)ccc21 has what recorded growth?
Return: -9.87

Enquiry: For the molecule shown here, CCc1ccc(NC(=O)N[C@@H](Cc2cccc(F)c2)C(=O)N[C@@H]2C(=O)N3CCC[C@H]3C(=O)N3CCCC[C@H]3C(=O)N[C@@H](CO)C(=O)N3C[C@H](C)C[C@H]3C(=O)O[C@H]2C)c(F)c1 , give the reported growth.
Return: 35.2

Enquiry: Which value of growth has been reported for Cn1nc(Nc2ccccc2)c(C(=O)NN)c1N in the records?
Return: 93

Enquiry: Name the recorded growth for Oc1ccc(CSc2nnc(-c3ccccc3)o2)c2cccnc12 .
Return: 47

Enquiry: # lookup: growth of O=C1c2c(O)cc(O)cc2O[C@@H](c2ccc(O)cc2)[C@@H]1c1c(O)cc(O)c2c(=O)cc(-c3ccc(O)c(O)c3)oc12
Return: 111

Enquiry: # input molecule: CC(C)C[C@H]1C(=O)O[C@H](C(C)C)C(=O)N(C)[C@@H](C(C)C)C(=O)O[C@H](C(C)C)C(=O)N(C)[C@@H](C(C)C)C(=O)O[C@H](C(C)C)C(=O)N1C ; wanted: its growth
Return: 8.5

Enquiry: Could you tell me which growth is on file for O=C1c2c(c3c4cccnc4[nH]c3c3ccc4ccccc4c23)C(=O)N1CCN1CCNCC1 ?
Return: 89.9

Enquiry: What does the record list as growth for O=C(COc1ccc(C2SCC(=O)N2c2ccccc2)cc1)c1ccccc1 (centres undefined) ?
Return: 81.6

Enquiry: Consider the molecule shown here: COc1cc(C(=O)C[n+]2ccc3ccccc3c2)cc(OC)c1OC What is its recorded growth?
Return: 93.3

Enquiry: Any idea what its growth is? The molecule is C/C(=C(/c1ccc(O)cc1)c1ccc(OCCN(C)C)cc1)c1ccc(Cl)cc1
Return: 31.1

Enquiry: Field request: growth | item: CC1(COc2ccc3ncc(C#Cc4cncc(C(=O)Nc5cc(C(C)(C)C)on5)c4)n3n2)COC1
Return: 30.7

Enquiry: Given the molecule CCN(CC)Cc1c(-c2cccc(OC(F)(F)F)c2)[nH]c2ccc(N3CCCC3)cc2c1=O , what is its reported growth?
Return: 87

----------
tested on: COLO 205 colon; assay: NCI-60 one-dose screen, 48 h; details: 10 µM unless noted
The panel holds about 83,000 compounds, 20% with a hit somewhere; the sample as a whole holds those more often. Active and inactive are the calls of the source. The calls were made as follows: active = growth percent below 10; inactive = the rest.
Outcomes you can answer with include only these: active, inactive

Enquiry: Record lookup: outcome of this test for COc1ccccc1N1CCN(C2=NN=C(c3cccc(Cl)c3)c3ccccc3C2)CC1 ?
Return: active

Enquiry: How was NS(=O)(=O)c1ccc(-n2cc(CC=O)nn2)cc1 classified in this test?
Return: inactive

Enquiry: Can you look up the reported call for C#C[C@]1(O)CC[C@H]2[C@@H]3CC=C4c5sc(Nc6ccc(OC)nc6)nc5CC[C@]4(C)[C@H]3CC[C@@]21C for me?
Return: inactive

Enquiry: Assay result, entry CC1CCc2c(sc3nc(SCC(=O)N/N=C/c4ccc(Cl)cc4)n(-c4ccccc4)c(=O)c23)C1 (stereo not given) — outcome?
Return: inactive

Enquiry: Which outcome was entered for the compound CCN1C(=O)N(CC)C2SC(N/N=C/c3ccccc3F)=NC21 (stereo not given) in this test?
Return: active

Enquiry: Per the assay record, what outcome was assigned to COc1cc2c3c(n(CCCNC4CCCC4)c(=O)c2cc1OC)-c1cc2c(cc1C3=O)OCO2 ?
Return: active

Enquiry: Please state the recorded outcome for this compound: COc1ccc(CCN2C(=O)CSC2=S)cc1OC
Return: inactive

Enquiry: Hello, I am checking results. What call was entered for NC(N)=NS(=O)(=O)c1ccc(N=NC2C(=O)NN(c3ccccc3)C2=O)cc1 (stereo not given) ?
Return: inactive

Enquiry: # fetch the recorded call for COc1ccc2c(c1)c(-c1nn3c(=O)cc(-c4ccccc4)nc3s1)cn2C here
Return: inactive

Enquiry: Test call for this compound, please: CCCCCc1ccc(S(=O)(=O)N(C(C)=O)c2cccc(-c3csc(N(CCN4CCN(C)CC4)C(C)=O)n3)c2)cc1
Return: active

Enquiry: For COc1ccc(-c2ccnc3c(C#N)c(Nc4ccccc4)nn23)cc1OC , which call appears in the assay record?
Return: inactive

Enquiry: Give the logged outcome of this assay for the following compound: CCN(CC)CCN1C(=O)c2c(c3c4cc(Br)ccc4[nH]c3c3ccc4ccccc4c23)C1=O
Return: active

Enquiry: Called result for O=C(/C=C/c1cccc(O)c1)c1ccc(O)cc1
Return: inactive

Enquiry: Called result for CN(c1ccc(Cl)cc1)S(=O)(=O)c1ccc(-c2cnc(C3CC3)o2)cc1
Return: active

Enquiry: Identify the outcome logged in this assay for the compound shown: Clc1ccc(-c2csc(Nc3cccc(Nc4csc(-c5ccc(Cl)cc5)n4)c3)n2)cc1
Return: inactive

Enquiry: # outcome recorded in this test, key = CCOC(=O)C1=C(C)Nc2nnc(Nc3ccccc3)n2C1c1ccccc1 (stereo not given)
Return: inactive

Enquiry: Write down the call the test reported for this compound. Item: CCN1C(=O)N(CC)C2C1NN=C1SC(c3ccccc3)=CC(=O)N12 (stereo not given)
Return: active

Enquiry: Please indicate how the test categorized O=C(COc1cccc2cccnc12)Nc1ccc(C(=O)/C=C/c2ccc(Cl)cc2)cc1 .
Return: inactive

Enquiry: Just curious, what result did C#C[C@]1(O)CC[C@H]2[C@@H]3CC=C4c5sc(-c6ccccn6)nc5CC[C@]4(C)[C@H]3CC[C@@]21C get here?
Return: inactive

Enquiry: Short answer needed: outcome of this test for Cc1ccc(-c2cc(-c3cccc4ccccc34)n3c(n2)nc2ccccc23)cc1 ?
Return: inactive
